Biological target: T1, CSP Protein (Plasmodium falciparum, UniProt Q7K740 19-374)
T1 construct: also called circumsporozoite protein; complete CSP protein
T1 sequence (Q7K740 19-374 limits assumed): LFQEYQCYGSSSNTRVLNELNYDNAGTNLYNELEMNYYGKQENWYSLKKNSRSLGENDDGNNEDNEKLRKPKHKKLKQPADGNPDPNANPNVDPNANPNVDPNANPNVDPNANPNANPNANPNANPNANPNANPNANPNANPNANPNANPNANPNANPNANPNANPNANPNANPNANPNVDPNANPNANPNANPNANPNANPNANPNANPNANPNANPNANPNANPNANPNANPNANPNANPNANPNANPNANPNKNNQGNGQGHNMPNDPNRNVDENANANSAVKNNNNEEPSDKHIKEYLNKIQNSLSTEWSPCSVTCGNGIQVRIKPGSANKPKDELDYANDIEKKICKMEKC
Assay: SPR, antibody on chip;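 note: antibodies immobilized on a Carterra chip, directly or via anti-human Fc capture, at two spots each, with CSP flowed over at 4-5 concentrations peaking at 0.5-8 µg/mL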
pKd: −log10 of the molar value.
# if value of pKd reaches 10, tag T; if it stays below, tag F

Field: example entries. Status: answers known.
- binder: "AB-007046 (antibody, V domains shown) VH: QMQLVESGGGVVQPGRSLRLSCTASGFTFSTYAMHWVRQSPGQGLQWVAVISYHSTNKYYEDSVRGRFTISRDNSKNTLYLQMNSLRAEDTAVYYCARDGYSSSFFDFWGQGTLVTVSS VL: DIQMTQSPSTLSASVGDRVAITCRASQSISRWLAWYQQQPGKAPKLLMSGASVLESGVPSRFSGSGSGTEFTLTISSLQPDDFATYYCQHYYSYFVTFGQGTKVEIK"
  assigned.label: "T"
- binder: "AB-007065 (antibody, V domains shown) VH: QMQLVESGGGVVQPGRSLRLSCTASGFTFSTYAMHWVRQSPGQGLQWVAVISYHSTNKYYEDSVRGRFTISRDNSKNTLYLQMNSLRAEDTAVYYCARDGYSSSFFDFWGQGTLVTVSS VL: DIQMTQSPSTLSASVGDRVAITCRASQSISRWLAWYQQQPGKAPKLLMSKASVLESGVPSRFSGSGSGTEFTLTISSLQPDDFATYYCQHYNSYFVTFGQGTKVEIK"
  assigned.label: "F"
- binder: "AB-007055 (antibody, V domains shown) VH: QMQLVESGGGVVQPGRSLRLSCTASGFTFSTYAMHWVRQSPGQGLQWVAVISYHSTNKYYEDSVRGRFTISRDNSKNTLYLQMNSLRAEDTAVYYCARDGYTSSFFDFWGQGTLVTVSS VL: DIQMTQSPSTLSASVGDRVAITCRASQSISRWLAWYQQQPGKAPKLLMSGASVLESGVPSRFSGSGSGTEFTLTISSLQPDDFATYYCQHYNSYFVTFGQGTKVEIK"
  assigned.label: "F"

Kindly review the next binder as well.
Q: # check: pKd of AB-007061 (antibody, V domains shown) VH: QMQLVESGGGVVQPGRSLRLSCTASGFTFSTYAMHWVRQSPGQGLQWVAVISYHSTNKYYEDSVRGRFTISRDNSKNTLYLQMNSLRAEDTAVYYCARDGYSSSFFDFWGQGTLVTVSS VL: DIQMTQSPSTLSASVGDRVAITCRASQSIDRWLAWYQQQPGKAPKLLMSGASVLESGVPSRFSGSGSGTEFTLTISSLQPDDFATYYCQHYNSYFVTFGQGTKVEIK is greater than or equal to 10
Ans: T
